These data points were gathered from patent US4707468A.

Tested on: mice
Experiment: Toxicity (minimum lethal dose) in mice
Type: in vivo
Settings: administered subcutaneously in mice

# compound, tested.on, Minimum Lethal Dose
measured = [
    ("CN[C@@H](Cc1ccc(O)cc1)C(=O)NCC(=O)NCC(=O)N[C@@H](Cc1ccccc1)C(=O)N[C@@H](CC(C)C)C(=O)N[C@@H](CCCNC(=N)N)C(=O)N(C)[C@@H](CCCNC(=N)N)C(=O)N(C)[C@@H](C)C(=O)O [Example 31]", "mice", "> 100 mg/kg"),
    ("CC[C@H](C)[C@@H](C(=O)O)N(C)C(=O)[C@H](CCCNC(=N)N)N(C)C(=O)[C@H](CCCNC(=N)N)NC(=O)[C@H](CC(C)C)NC(=O)[C@H](Cc1ccccc1)NC(=O)CNC(=O)CNC(=O)[C@H](Cc1ccc(O)cc1)NC [Example 36]", "mice", "> 100 mg/kg"),
    ("CN[C@@H](Cc1ccc(O)cc1)C(=O)NCC(=O)NCC(=O)N[C@@H](Cc1ccccc1)C(=O)N[C@@H](CC(C)C)C(=O)N[C@@H](CCCNC(=N)N)C(=O)N(C)[C@@H](CCCNC(=N)N)C(=O)N[C@H](C)C(=O)O [Example 30]", "mice", "> 100 mg/kg"),
    ("CCNC(=O)[C@@H](CC(C)C)NC(=O)[C@H](CCCNC(=N)N)N(C)C(=O)[C@H](CCCNC(=N)N)NC(=O)[C@H](CC(C)C)NC(=O)[C@H](Cc1ccccc1)NC(=O)CNC(=O)CNC(=O)[C@H](Cc1ccc(O)cc1)NC [Example 1]", "mice", "100 mg/kg"),
]
